System: Bcap37
Test: Cytotoxicity against human Bcap37 cells after 48 hrs by MTT assay
Assay type: functional, cell-based
Conditions: Bcap37, 48 h
Provide the reported pIC50 of each item.
Numbers only, as −log10 of the molar value.

Please review the entries below; each comes with its answer.
compound | pIC50
CO[C@@H]1OC[C@@]23CCC[C@@]1(C)[C@@H]2CC[C@@]12C[C@@H](CC[C@H]13)[C@](C)(O)C2 (relative stereo) | 4.93
CC(C)C1=CC(=O)C2=C(CC[C@H]3[C@@](C)(CO)C(=O)CC[C@]23C)C1=O | 4.88

Batch request: pIC50 for each of the following compounds.
1. CC(C)c1ccc2c(c1O)CC[C@H]1C3=C(CC[C@]21C)C(=O)OC3 [TRIPTOPHENOLIDE]
2. COc1cc2c(c(O)c1C(C)C)CC[C@H]1C(C)=C(C(=O)O)CC[C@]21C

Reply text:
[4.65, 4.42]

----------
Task for the reader: assign each of the following molecules its reported IC50.
System: U-251
Test: Cytotoxicity against human U251 cells after 48 hrs by MTT assay
Type: functional, cell-based
Settings: U-251, 48 h

molecule | IC50
COc1cc2c(c(O)c1C(C)C)CC[C@H]1C(C)=C(C(=O)O)CC[C@]21C | > 100 µM

Would you be so kind as to report IC50 for each listed record?
1. CC(C)C1=CC(=O)C2=C(CC[C@H]3[C@@](C)(CO)[C@@H](O)CC[C@]23C)C1=O
2. CC(C)c1ccc2c(c1O)CC[C@H]1C3=C(CC[C@]21C)C(=O)OC3 [TRIPTOPHENOLIDE]
3. CC(C)c1ccc2c(c1O)CC[C@H]1C(C)(C)[C@@H](O)CC[C@]21C
4. C[C@@]1(O)C[C@@]23CC[C@H]4[C@@]5(CCC[C@]4(C)C(=O)OC5)[C@]2(O)CC[C@H]1C3
5. CC(C)C1=C[C@@]2(O)OO[C@@H]3CC(=O)[C@](C)(CO)[C@@H]4CCC(=C2[C@]43C)C1=O
6. C[C@@]1(O)C[C@@]23CC[C@H]4[C@@]5(CCC[C@]4(C)C(=O)OC5)[C@@H]2CC[C@H]1C3
7. CC(C)c1ccc2c(c1O)CC[C@H]1[C@@](C)(CO)[C@@H](O)CC[C@]21C
8. CC(C)c1ccc2c(c1)CC[C@H]1[C@@](C)(CO)C(=O)CC[C@]21C

Reply text:
1. 43.6 µM
2. > 100 µM
3. > 100 µM
4. > 100 µM
5. 24.9 µM
6. > 100 µM
7. > 100 µM
8. > 100 µM

Would you mind giving IC50 for every molecule in the list below?
1. COc1c(C(C)C)cc(O)c2c1CC[C@H]1C(C)(C)C(=O)CC[C@]21C
2. C[C@]12C3=C4CC=C[C@@]3(O)OO[C@@H]1CC1=C(COC1=O)[C@@H]2CC4
3. COc1c(C(C)C)cc(O)c2c1CCC1=C(C)C(=O)CC[C@@]12C
4. COc1c(C(C)C)cc(O)c2c1CC[C@H]1C(C)=C(C(=O)O)CC[C@]21C
5. COc1c(C(C)C)cc(O)c2c1CC[C@H]1[C@@](C)(CO)C(=O)CC[C@]21C

Reply text:
["29.3 µM", "20.2 µM", "8.62 µM", "> 100 µM", "> 100 µM"]

Hi, could you look up IC50 for each item in my list?
1. C=C1C(OC(C)=O)[C@]23[C@H](O)[C@H]1CC[C@H]2[C@]12CCCC(C)(C)[C@H]1[C@H](OC(C)=O)[C@@]3(O)OC2 (some centres not stated)
2. CC(C)C1=CC(=O)C2=C(CC[C@H]3[C@@](C)(CO)C(=O)CC[C@]23C)C1=O
3. CO[C@@H]1OC[C@@]2(C)CCC[C@]13[C@@H]1CC[C@H]4C[C@@]1(CC[C@@H]23)C[C@@]4(C)O

Reply text:
["> 100 µM", "> 100 µM", "> 100 µM"]

----------
Tested on: Bcap37
Assay: Cytotoxicity against human Bcap37 cells after 48 hrs by MTT assay
Type: functional, cell-based
Conditions: Bcap37, 48 h
pIC50: −log10 of the molar value.
measured-property: pIC50

For each listed entry, give its pIC50.
1. O=c1[nH]cc(F)c(=O)[nH]1
2. C=C1C(OC(C)=O)[C@]23[C@H](O)[C@H]1CC[C@H]2[C@]12CCCC(C)(C)[C@H]1[C@H](OC(C)=O)[C@@]3(O)OC2 (stereo not given in full)
3. COc1c(C(C)C)cc(O)c2c1CCC1=C(C)C(=O)CC[C@@]12C

Reply text:
4.81
< 4.00
5.10

----------
Consider the following compounds; for each one, report its IC50.
Tested on: U-251
Experiment: Cytotoxicity against human U251 cells after 48 hrs by MTT assay
Type: functional, cell-based
Settings: U-251, 48 h
One number for each entry, in µM.

compound | display-unit | IC50
CO[C@@H]1OC[C@@]23CCC[C@@]1(C)[C@@H]2CC[C@@]12C[C@@H](CC[C@H]13)[C@](C)(O)C2 (relative stereo) | µM | 13.5

// switching to the query compound
Inquiry: In one line, give reported IC50 of the entry `O=c1[nH]cc(F)c(=O)[nH]1` .
Reply text: 24.7

----------
Answer each item with its documented pIC50.
Test system: U-251
Test: Cytotoxicity against human U251 cells after 48 hrs by MTT assay
Assay type: functional, cell-based
Conditions: U-251, 48 h
pIC50: −log10 of the molar value.

compound | pIC50
CC(C)c1ccc2c(c1)C(=O)C[C@H]1[C@@](C)(CO)C(=O)CC[C@]21C [TRIPTOBENZENE N] | < 4.00
C[C@@]12CCC[C@]3(C(=O)OC1)[C@@H]2CC[C@@]12C[C@H](CC[C@H]13)[C@](C)(O)C2 | < 4.00

--- query ---
Inquiry: Consider the compound `CC1=C(C(=O)O)CC[C@]2(C)C3=C(CC[C@@H]12)C(=O)C(C(C)C)=CC3=O` . State its measured pIC50.
Reply text: < 4.00
